Reported property: melting point

Worked set:
>>> df
                            chemical_smiles  reported_property    test_result
0  CC(C)(C)c1ccc(-c2sc(N)c(C(=O)c3ccc(Cl)cc3)c2CN(C2CCCCC2)C2CCCCC2)cc1      melting point  180 to 184 °C
1  Cc1ccc(-c2sc(N)c(C(=O)c3ccc(Cl)cc3)c2CN(C2CCCCC2)C2CCCCC2)cc1      melting point  191 to 194 °C
2  Nc1sc(-c2ccncc2)c(CN(C2CCCCC2)C2CCCCC2)c1C(=O)c1ccc(Cl)cc1      melting point  214 to 216 °C
3  Nc1sc(-c2cc(F)cc(F)c2)c(CN(C2CCCCC2)C2CCCCC2)c1C(=O)c1ccc(Cl)cc1      melting point  163 to 166 °C
4  Nc1sc(-c2cccc(F)c2)c(CN(C2CCCCC2)C2CCCCC2)c1C(=O)c1ccc(Cl)cc1      melting point  205 to 207 °C
5  COc1ccc(-c2sc(N)c(C(=O)c3ccc(Cl)cc3)c2CN(C2CCCCC2)C2CCCCC2)cc1      melting point  178 to 182 °C

Next up:
Quick check: melting point of Nc1sc(-c2ccoc2)c(CN(C2CCCCC2)C2CCCCC2)c1C(=O)c1ccc(Cl)cc1 ?
132 to 135 °C
